assay: Tmax in ICR mouse at 3 mg/kg, iv measured upto 48 hrs; format: ADME, organism-based; conditions: in vivo
So I've got a bunch of compounds here, and I need their Tmax values.
Write the figure, then the unit, nothing else.

Examples with answers:
> print(dat)
                                     smiles  experimental.result
1  Cc1c(F)cccc1NC(=O)Nc1ccc2c(c1O)S(=O)(=O)CC=C2                3 min
2  NS(=O)(=O)c1c(Cl)ccc(NC(=O)Nc2cccc(Cl)c2Cl)c1O              3.6 min

Let's switch to this compound now.
Data request: State, in one line, measured Tmax of Cc1c(F)cccc1NC(=O)Nc1ccc2c(c1O)S(=O)(=O)CCC2
Data returned: 1.8 min

Entry source: ChEMBL document CHEMBL5032530
